Data origin: paper PMC6364417

# Test system: A375 cells (parental)
# ASSAY_REMARKS: Kinase inhibitor library screening, PrestoBlue cell viability, 1 or 10 μM, 72 h
# CONDITION_SET: A375 Parental; 1μΜ; 72 h
ASSAY_METRIC: cell viability (kinase inhibitor library screening) (%)
Give bare numbers, in %.

O=C(NC1CCNCC1)c1[nH]ncc1NC(=O)c1c(Cl)cccc1Cl [AT7519, reference compound] ... 30.7

For the 7 compounds below, give their cell viability (kinase inhibitor library screening) values.
1. CCc1cnn2c(NCc3ccc[n+]([O-])c3)cc(N3CCCC[C@H]3CCO)nc12 [Dinaciclib (SCH727965)]
2. C[C@@H](Oc1cc(-c2cnn(C3CCNCC3)c2)cnc1N)c1c(Cl)ccc(F)c1Cl
3. CC(C)(C)c1cnc(CSc2cnc(NC(=O)C3CCNCC3)s2)o1
4. CCc1cccc(CC)c1NC(=O)N1Cc2n[nH]c(NC(=O)c3ccc(N4CCN(C)CC4)cc3)c2C1
5. Cc1[nH]c(/C=C2\C(=O)Nc3ccc(S(=O)(=O)N(C)c4cccc(Cl)c4)cc32)c(C)c1C(=O)N1CCN(C)CC1
6. O=c1[nH]c2ccc(Cl)cc2c(N[C@@H]2CN3CCC2CC3)c1-c1nc2ccccc2[nH]1 [CHIR-124, reference compound]
7. Clc1ccc(C2(c3ccc(-c4cn[nH]c4)cc3)CCNCC2)cc1

1. 10.8
2. 98.4
3. 13.7
4. 85.1
5. 112.5
6. 23.5
7. 97.2
